Data origin: patent US20230055408A1

- measurement_target: T1, human CEA protein on the cell surface (human, UniProt P06731 35-685)
- T1 construct: whole, on cells; also called CEACAM-5; CD66e
- T1 sequence (looked up): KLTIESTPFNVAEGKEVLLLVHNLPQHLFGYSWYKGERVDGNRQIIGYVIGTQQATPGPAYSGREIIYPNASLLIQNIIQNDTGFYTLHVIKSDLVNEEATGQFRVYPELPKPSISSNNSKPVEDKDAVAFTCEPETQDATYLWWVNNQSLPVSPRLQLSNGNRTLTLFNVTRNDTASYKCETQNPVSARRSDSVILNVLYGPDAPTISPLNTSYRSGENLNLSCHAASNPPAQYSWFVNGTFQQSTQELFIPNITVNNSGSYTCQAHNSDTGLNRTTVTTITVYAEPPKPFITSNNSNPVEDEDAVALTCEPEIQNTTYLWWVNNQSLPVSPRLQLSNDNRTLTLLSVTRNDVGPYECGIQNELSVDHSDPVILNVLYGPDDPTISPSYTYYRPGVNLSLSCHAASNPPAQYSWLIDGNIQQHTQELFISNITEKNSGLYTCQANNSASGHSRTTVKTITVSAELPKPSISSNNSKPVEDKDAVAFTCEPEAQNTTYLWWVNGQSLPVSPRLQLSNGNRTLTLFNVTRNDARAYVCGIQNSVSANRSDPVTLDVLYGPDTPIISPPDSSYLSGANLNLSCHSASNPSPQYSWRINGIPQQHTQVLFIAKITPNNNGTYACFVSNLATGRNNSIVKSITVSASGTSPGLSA
- test_method_notes: FACS, MKN45 cells
measurement_label: pEC50
Please treat pEC50 as minus the base-10 logarithm of the molar concentration.

// worked examples, pEC50 included
binder	pEC50
Hu63-9 (antibody, human IgG1, kappa, V domains shown) VH: EVQLVQSGAEVKKPGASVKVSCKASGYTFTDFYMNWVRQAPGQGLEWIGDIFPKNGNTDYNRKFKDRATLTVDKSTSTVYMEFSSLRSEDTAVYYCARSGYGNYVFDYWGQGTLVTVSS VL: DVQMTQSPSSLSASVGDRVTITCRTSQDINIYLNWYQQKPGGAVKLLIYYRSGLLSGVPSRFSGSGSGTDYTLTISSLQPEDFATYYCQQGNTLPPTFGGGTKVEIKR	8.31
Hu103-7 (antibody, human IgG1, lambda, V domains shown) VH: EVQLVQSGSELKKPGASVKVSCKASGYTFTTYGVIWVRQAPGQGLEWMGWINTYSGVPTYADDFKGRFVFSLDTSVSTAYLQISSLKAEDTAVYYCARKKTLTTVTPWFAYWGQGTLVTVSS VL: ELVVTQSPSASASLGASVKLTCTLSSQHSTYTIEWYQQQPEKPPRYVMELKKDGSHSTGDGIPDRFSGSSSGADRYLTISSLQSEDEADYICGVGNTIKEQFVYVFGGGTKLTVLG	8.66

Req: Can you share its pEC50? I mean this binder: Hu63-3 (antibody, human IgG1, kappa, V domains shown) VH: EVQLVQSGAEVKKPGASVKVSCKASGYTFTDFYMNWVRQAPGQGLEWMGDIFPKNGNTDYNRKFKDRVTMTRDTSTSTVYMELSSLRSEDTAVYYCARSGYGNYVFDYWGQGTLVTVSS VL: DVQMTQSPSSLSASVGDRVTITCRTSQDINIYLNWYQQKPGGAVKLLIYYRSGLLSGVPSRFSGSGSGTDYTLTISSLQPEDFATYYCQQGNTLPPTFGGGTKVEIKR
Resp: 8.45
